system: INSRR; details: concentration: 1 μM,replicates: in singlicate; n = 1;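 further: KINOMEscan kinase panel screen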
Experimental Readout: %Inh (%)
Number only, in %; omit the unit.

# annotated cases, reported %Inh shown
Cc1ccn2nc(-c3ccc(F)cc3)c(-c3ccncc3)c2c1.Cl :: 0
C[C@@H](Oc1cc(-n2cnc3cc(-c4ccncc4)ccc32)sc1C(N)=O)c1ccccc1Cl :: 0

Alright, here's another compound for you.
The recorded %Inh for COc1cc2c(Nc3ccc(NC(=O)c4ccccc4)cc3)ncnc2cc1OCCCN1CCOCC1 is 0

* * *

test system: DCAMKL3; construct: gene DCLK3; conditions: concentration: 1 μM,replicates: in singlicate; n = 1
Experimental Readout: %Inh (%)
State just the number; it will be interpreted in %.

Per the record, NC(=O)Nc1sc(-c2ccc(F)cc2)cc1C(N)=O [GW789449] has %Inh of 0

Item: O=c1[nH]cc(-c2ccc(O)cc2)c2sc(-c3ccncc3)cc12 [GSK1033723] | %Inh: 5

Short answer for C[C@@H]1CNc2c(sc3ccc4nc(-c5ccncc5)ccc4c23)C(=O)N1 : %Inh was 55

* * *

system: p38-alpha; construct: gene MAPK14; conditions: concentration: 1 μM,replicates: in singlicate; n = 1
Listed next: entries and their corresponding %Inh.
I only need the number, in %, no unit after it.

Known results for molecules:
COc1cc2c(Nc3ccc(NC(=O)c4ccccc4)cc3)ncnc2cc1OCCCN1CCOCC1 :: 0
O=C(Nc1cccc(C(F)(F)F)c1)c1cccc(Oc2ccc3nccn3n2)c1 :: 0
N#Cc1cccc(C(=O)NC2CCN(c3ccnc(Nc4ccc(F)cc4)n3)C2)c1 (centres unmarked) :: 35
O=C(NCC1CC1)c1ccc(-c2cc(C(=O)NC3CC3)ccc2F)cc1 :: 55
Cn1ccc2ncnc(Oc3ccc(NC(=O)Nc4cc(C(C)(C)C)on4)c(Cl)c3)c21 :: 97.2

In plain terms, Cl.Cl.NC[C@H](CC1CCCCC1)NC(=O)c1ccc(-c2ccnc3[nH]ccc23)s1 has a documented %Inh of 0

For this molecule ( Cn1ccc2ncnc(Oc3ccc(NC(=O)Nc4cnn(C(C)(C)C)c4)c(Cl)c3)c21 ), measured %Inh is 91.6

The reported %Inh of the molecule CC(C)c1nc(-c2cccc(NS(=O)(=O)c3ccccc3)c2)c(-c2ccnc(Nc3ccc4c(c3)CN(C)CC4)n2)s1 was 91.5

* * *

Measured %Inh values are reported for all entries that follow.
system: PCTK1; construct: gene CDK16; conditions: concentration: 1 μM,replicates: in singlicate; n = 1
Respond numerically; units are % and should not be typed.

Reference set, count: 2
C[C@@H]1CCN(C(=O)N2CCCC2)C[C@@H]1N(C)c1ncnc2[nH]ccc12 :: 5
Cc1ccn2nc(-c3ccc(F)cc3)c(-c3ccncc3)c2c1.Cl [GW457859] :: 0

Here's the next entry for you.
Per the record, Cc1ccc(CC(=O)N2CCc3cc(-c4cn(C)c5ncnc(N)c45)ccc32)cc1 [GSK2634758] has %Inh of 0

* * *

test system: PIP5K2C; construct: gene PIP4K2C; conditions: concentration: 1 μM,replicates: in singlicate; n = 1
// NB: equality with 30% counts as Not satisfied; only %Inh strictly below is Satisfied

Worked examples, 9 molecules total:
CC(C)S(=O)(=O)N1CCN(Cc2ccc3c(c2)nc(NC(=O)c2ccsc2)n3C[C@H](O)c2ccccc2)CC1 :: Satisfied
CN1CCN(CCCNc2nccc(-c3c(-c4ccc(F)cc4)nn4cc(C(N)=O)ccc34)n2)CC1 :: Satisfied
C[C@@H]1CNc2c(sc3ccc4nc(-c5ccncc5)ccc4c23)C(=O)N1 :: Satisfied
COc1cc2nccc(Nc3ccc(Oc4ccccc4)cc3)c2cc1OC.Cl :: Not satisfied
CS(=O)(=O)Nc1ccc(-c2ccnc3[nH]ccc23)cc1 :: Not satisfied
Cc1cccc(-c2nc(Nc3ccncc3)c3sccc3n2)n1 :: Not satisfied
COC(=O)c1cccc(NC(=O)NC2CCN(c3ccnc(Nc4cc(OC)c(OC)c(OC)c4)n3)C2)c1 (stereo not shown) :: Not satisfied
OCCn1cc(-c2cnc3nnn(Cc4ccc5ncccc5c4)c3n2)cn1 :: Satisfied
C[C@@H](Oc1cc(-n2cnc3cc(-c4ccncc4)ccc32)sc1C(N)=O)c1ccccc1Cl :: Satisfied

Turning now to a further record.
Quick check: %Inh of FC(F)(F)c1cc(Br)cc(Nc2nccc(-c3cnn4ncccc34)n2)c1 under 30%?
Not satisfied
